src = ChEMBL document CHEMBL1687777

Test system: Klebsiella pneumoniae
Assay: Antibacterial activity against porin, OmpA positive extended-spectrum beta-lactamase producing Klebsiella pneumoniae KPBj1 by disk agar diffusion method
Assay type: functional
readoutKind: MIC (µg/mL)
Numbers only, in µg/mL.

Example cases with answers are listed next.
Tested on Klebsiella pneumoniae: CCn1cc(C(=O)O)c(=O)c2ccc(C)nc21 . Observed MIC: 32

Tested on Klebsiella pneumoniae: CC(C)(O/N=C(\C(=O)N[C@@H]1C(=O)N2C(C(=O)[O-])=C(C[n+]3ccccc3)CS[C@H]12)c1csc(N)n1)C(=O)O . Observed MIC: 32

Tested on Klebsiella pneumoniae: CO[C@@]1(NC(=O)Cc2cccs2)C(=O)N2C(C(=O)O)=C(COC(N)=O)CS[C@@H]21 . Observed MIC: 8

Tested on Klebsiella pneumoniae: CO/N=C(\C(=O)N[C@@H]1C(=O)N2C(C(=O)O)=C(COC(C)=O)CS[C@H]12)c1csc(N)n1 . Observed MIC: 128

Tested on Klebsiella pneumoniae: C[C@@H](O)[C@H]1C(=O)N2C(C(=O)O)=C(S[C@@H]3CN[C@H](C(=O)Nc4cccc(C(=O)O)c4)C3)[C@H](C)[C@H]12 . Observed MIC: 0.125

Note: attention shifts to another entry.
Tested on Klebsiella pneumoniae: O=C(N[C@H](CO)[C@H](O)c1ccc([N+](=O)[O-])cc1)C(Cl)Cl . Observed MIC: 128

---

Exercise: state measured MIC for each of the molecules provided.
Tested on: Klebsiella pneumoniae
Experiment: Antibacterial activity against porin deficient OmpA positive Klebsiella pneumoniae KPBj3 expressing efflux system by disk agar diffusion method
Type: functional
Give bare numbers, in µg/mL.

Example cases with answers are listed next.
Notebook: CC(C)(O/N=C(\C(=O)N[C@@H]1C(=O)N2C(C(=O)[O-])=C(C[n+]3ccccc3)CS[C@H]12)c1csc(N)n1)C(=O)O [CEFTAZIDIME] , MIC read as 0.25

Notebook: C[C@@H](O)[C@H]1C(=O)N2C(C(=O)O)=C(S[C@@H]3CN[C@H](C(=O)Nc4cccc(C(=O)O)c4)C3)[C@H](C)[C@H]12 , MIC read as 0.25

Notebook: O=C(N[C@H](CO)[C@H](O)c1ccc([N+](=O)[O-])cc1)C(Cl)Cl [CHLORAMPHENICOL] , MIC read as 128

Notebook: CO/N=C(\C(=O)N[C@@H]1C(=O)N2C(C(=O)O)=C(COC(C)=O)CS[C@H]12)c1csc(N)n1 [CEFOTAXIME] , MIC read as 0.25

Notebook: CO[C@@]1(NC(=O)Cc2cccs2)C(=O)N2C(C(=O)O)=C(COC(N)=O)CS[C@@H]21 [CEFOXITIN] , MIC read as 32

Note: attention shifts to another entry.
Notebook: CCn1cc(C(=O)O)c(=O)c2ccc(C)nc21 [NALIDIXIC ACID] , MIC read as 32

---

Tested on: Klebsiella pneumoniae
Test: Antibacterial activity against porin, OmpA positive Klebsiella pneumoniae KPBj1 revertant by disk agar diffusion method
Type: functional
# note: boundary value 0.1 µg/mL maps to Not satisfied; MIC below it maps to Satisfied

Worked set:
Hello, I'm reviewing records and need to know if MIC of CO[C@@]1(NC(=O)Cc2cccs2)C(=O)N2C(C(=O)O)=C(COC(N)=O)CS[C@@H]21 [CEFOXITIN] is below 0.1 µg/mL. Could you check?
Not satisfied

Hello, I'm reviewing records and need to know if MIC of C[C@@H](O)[C@H]1C(=O)N2C(C(=O)O)=C(S[C@@H]3CN[C@H](C(=O)Nc4cccc(C(=O)O)c4)C3)[C@H](C)[C@H]12 is below 0.1 µg/mL. Could you check?
Satisfied

Hello, I'm reviewing records and need to know if MIC of CCn1cc(C(=O)O)c(=O)c2ccc(C)nc21 [NALIDIXIC ACID] is below 0.1 µg/mL. Could you check?
Not satisfied

Hello, I'm reviewing records and need to know if MIC of C[C@H]1COc2c(N3CCN(C)CC3)c(F)cc3c(=O)c(C(=O)O)cn1c23.C[C@H]1COc2c(N3CCN(C)CC3)c(F)cc3c(=O)c(C(=O)O)cn1c23.O [LEVOFLOXACIN] is below 0.1 µg/mL. Could you check?
Satisfied

Others:
Hello, I'm reviewing records and need to know if MIC of CO/N=C(\C(=O)N[C@@H]1C(=O)N2C(C(=O)O)=C(COC(C)=O)CS[C@H]12)c1csc(N)n1 [CEFOTAXIME] is below 0.1 µg/mL. Could you check?
Satisfied

Hello, I'm reviewing records and need to know if MIC of CC(C)(O/N=C(\C(=O)N[C@@H]1C(=O)N2C(C(=O)[O-])=C(C[n+]3ccccc3)CS[C@H]12)c1csc(N)n1)C(=O)O [CEFTAZIDIME] is below 0.1 µg/mL. Could you check?
Not satisfied

Hello, I'm reviewing records and need to know if MIC of O=C(N[C@H](CO)[C@H](O)c1ccc([N+](=O)[O-])cc1)C(Cl)Cl [CHLORAMPHENICOL] is below 0.1 µg/mL. Could you check?
Not satisfied
